Values from ChEMBL document CHEMBL1157165

- method: Inhibition of HIV reverse transcriptase
- Parameters: species or system Human immunodeficiency virus
Catalogue of pIC50 values
Expect pIC50 as a plain number equal to -log10 of the molar concentration.

# record smiles, measured number
data = [
    ("CC(C)Nc1cccnc1N1CCN(C(=O)c2cc3cc(NS(C)(=O)=O)ccc3[nH]2)CC1", 7.44),
    ("CC(C)Nc1cccnc1N1CCN(C(=O)c2[nH]c3ccc(C(=O)/C=C(\\O)C(=O)O)cc3c2Cl)CC1", 5.96),
]

Task item: # input molecule: CC(C)Nc1cccnc1N1CCN(C(=O)c2cc3cc(C(=O)/C=C(\O)C(=O)O)ccc3[nH]2)CC1 ; wanted: its pIC50
Reply: 8.23
